system: FAK (Homo sapiens, UniProt Q05397)
Construct: homozygous knock-in of a HiBiT tag (Promega Corporation, Madison, WI) to the C-terminus of the FAK gene in its natural genomic locus; endogenous in cells; host or cells: JHH-4-FAK-HiBiT clone d01 (CRISPR-Cas9 knock-in at the endogenous locus)
Sequence (Q05397 whole entry): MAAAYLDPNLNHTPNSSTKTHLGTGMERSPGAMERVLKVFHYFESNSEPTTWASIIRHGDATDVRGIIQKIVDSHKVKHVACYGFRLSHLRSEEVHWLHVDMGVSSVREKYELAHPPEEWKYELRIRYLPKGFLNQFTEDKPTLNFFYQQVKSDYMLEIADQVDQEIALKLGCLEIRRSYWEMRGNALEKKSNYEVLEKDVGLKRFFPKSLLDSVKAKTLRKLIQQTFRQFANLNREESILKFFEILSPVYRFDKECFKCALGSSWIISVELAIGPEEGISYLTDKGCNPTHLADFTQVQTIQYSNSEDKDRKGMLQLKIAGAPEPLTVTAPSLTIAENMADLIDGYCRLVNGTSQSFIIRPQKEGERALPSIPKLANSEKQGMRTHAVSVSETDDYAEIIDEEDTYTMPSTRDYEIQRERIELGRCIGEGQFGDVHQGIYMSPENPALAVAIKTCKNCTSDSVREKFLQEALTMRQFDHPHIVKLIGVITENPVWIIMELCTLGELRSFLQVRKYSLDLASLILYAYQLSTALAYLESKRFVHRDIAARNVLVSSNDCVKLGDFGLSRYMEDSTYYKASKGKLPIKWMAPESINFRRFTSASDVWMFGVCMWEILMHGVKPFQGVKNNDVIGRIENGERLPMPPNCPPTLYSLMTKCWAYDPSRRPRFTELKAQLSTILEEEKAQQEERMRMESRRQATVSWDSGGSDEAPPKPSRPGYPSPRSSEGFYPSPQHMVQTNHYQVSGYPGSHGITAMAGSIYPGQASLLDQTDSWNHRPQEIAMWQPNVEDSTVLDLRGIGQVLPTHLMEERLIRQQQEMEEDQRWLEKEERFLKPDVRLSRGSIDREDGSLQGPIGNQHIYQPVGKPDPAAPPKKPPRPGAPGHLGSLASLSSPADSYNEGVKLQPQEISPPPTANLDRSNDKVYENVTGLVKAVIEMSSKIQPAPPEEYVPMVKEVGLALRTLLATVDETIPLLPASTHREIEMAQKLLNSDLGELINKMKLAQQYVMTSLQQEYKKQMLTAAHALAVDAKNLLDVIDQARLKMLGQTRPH
methodNotes: FAK-HiBiT Degradation Assay
Type: cell-based
details: lower limit of the four parameter fit (value A); Ymax derived using DMSO control; JHH-4-FAK-HiBiT cells, two hours
With a cut-off of 7, any FAK HiBiT Ymin strictly below it is called yes (1); any FAK HiBiT Ymin meeting it or above is called no (0).

| compound | system | labelValue |
| --- | --- | --- |
| O=C1CCC(N2Cc3cc(Cn4cnc5c(-c6ccc(F)cc6F)cc(N6CC(F)C6)nc54)ccc3C2=O)C(=O)N1 (stereo not drawn) | FAK (Homo sapiens, UniProt Q05397) | no (0) |
| O=C1CCC(N2Cc3cc(Cn4ncc5c(-c6ncc(C(F)(F)F)cc6Cl)cc(N6CCCC6)nc54)ccc3C2=O)C(=O)N1 (stereo not drawn) | FAK (Homo sapiens, UniProt Q05397) | yes (1) |
| O=C1CCC(N2Cc3cc(Cn4ccc5c(-c6ncc(C(F)(F)F)cc6Cl)cc(N6CC(F)C6)nc54)ccc3C2=O)C(=O)N1 (stereo not drawn) | FAK (Homo sapiens, UniProt Q05397) | no (0) |
| O=C1CC[C@H](N2Cc3cc(Cn4ncc5c(-c6ccc(F)cc6F)cc(N6CC[C@H](O)C6)nc54)ccc3C2=O)C(=O)N1 | FAK (Homo sapiens, UniProt Q05397) | no (0) |
| O=C1CCC(N2Cc3cc(Cn4ncc5c(-c6ncc(C(F)(F)F)cc6Cl)cc(N6CC(F)C6)nc54)cc(F)c3C2=O)C(=O)N1 (stereo not drawn) | FAK (Homo sapiens, UniProt Q05397) | yes (1) |

* * *

Reported CAL-51 Prolif Ymin is given for each of the following compounds.
Test system: CAL-51 cells
methodNotes: CAL-51 Cell Proliferation Assay
Assay type: cell-based
details: minimal percent of DMSO control observed in the concentrations tested (Ymin-obs), 120 hours

| compound | system | CAL-51 Prolif Ymin |
| --- | --- | --- |
| CCOc1ccc(-c2c(F)c(N3CC[C@](C)(O)C3)nc3c2cnn3Cc2ccc3c(c2)CN([C@H]2CCC(=O)NC2=O)C3=O)c(Cl)c1 | CAL-51 cells | 28.60 |
| O=C1CCC(N2Cc3cc(Cn4ncc5c(-c6ncc(C(F)(F)F)cc6F)cc(N6CC(F)C6)nc54)ccc3C2=O)C(=O)N1 (stereo not drawn) | CAL-51 cells | 36.41 |
| CN(c1cc(-c2ncc(C(F)(F)F)cc2Cl)c2cnn(Cc3ccc4c(c3)CN([C@H]3CCC(=O)NC3=O)C4=O)c2n1)[C@H]1C[C@@H](O)C1 | CAL-51 cells | 28.57 |
| O=C1CC[C@H](N2Cc3cc(Cn4ccc5c(-c6ncc(C(F)(F)F)cc6Cl)nc(N6CC(F)C6)nc54)ccc3C2=O)C(=O)N1 | CAL-51 cells | 25.69 |
| O=C1CCC(N2Cc3cc(Cn4ncc5c(-c6nnccc6C(F)(F)F)cc(N6CC(F)C6)nc54)ccc3C2=O)C(=O)N1 (stereo not drawn) | CAL-51 cells | 92.49 |
| O=C1CCC(N2Cc3cc(Cn4ncc5c(-c6ncccc6C(F)(F)F)cc(N6CC(F)C6)nc54)ccc3C2=O)C(=O)N1 (stereo not drawn) | CAL-51 cells | 23.53 |
